Tested on: microorganisms
Assay: Peptide activities: targeting/binding, antimicrobial, growth or phenotype altering (Tables 7, 8)
Assay type: cell-based
Settings: peptides having multiple activities
Ends that are not written are not given here.
observed property: Activities

substance	tested on	Activities
LGLTAGVAYAAQPTNQPTNQPTNQPTNQPTNQPTNQPRW-NH2 [PF-520]	microorganisms	G B M
PF-464: peptide having multiple activities (VDMVNRFLGN; Peptide with targeting and/or antimicrobial activity)	microorganisms	G B
ALDCSEQSVILWYETILDKIVGVIK [PF-028]	microorganisms	G B
PF-135: peptide having multiple activities (chain 1 PPARPARIPQTPTLHGASLFRQRS; chain 2 PPARPARIPQTPTLHGASLFRQRS; Peptide with targeting and/or antimicrobial activity)	microorganisms	G B

Would you mind telling me what Activities value was observed for PF-629: peptide having multiple activities (chain 1 GLAAIATVFALY; chain 2 GLAAIATVFALY; Peptide with targeting and/or antimicrobial activity) ?
G B

Queued: PF-215: peptide having multiple activities (ELKITNYNVNTVLYRYYKWGNDLCE; Peptide with targeting and/or antimicrobial activity)
G B

====

System: microorganisms
Assay: Morphology, biofilm and growth disrupting peptides (Table 5)
Type: cell-based
Set-up: key: A: Peptide aggregates; B: Less hyphal formation; Clumps; Diffuse clumps and small polyps; F: Diffuse growth; H: Thin; I: Growth inhibition; Microcolony formation; Rippled; Small polyps; Thick; W: Halo formation on top, microlonies on bottom
Settings: P. aeruginosa

substance	Organism, effect
PF-536 (MEPIPHIMIIANQIGIIIEKA; Peptide with targeting and/or antimicrobial activity)	P. aeruginosa (H)
PF-454: peptide having multiple activities (MSVFVPVTNIFMFIMSPIFNVNLLHFKVYI; Peptide with targeting and/or antimicrobial activity)	P. aeruginosa (H)

====

System: microorganisms
Assay: Morphology, biofilm and growth disrupting peptides (Table 5)
Assay type: cell-based
Design: key: A: Peptide aggregates; B: Less hyphal formation; Clumps; Diffuse clumps and small polyps; F: Diffuse growth; H: Thin; I: Growth inhibition; Microcolony formation; Rippled; Small polyps; Thick; W: Halo formation on top, microlonies on bottom
Conditions: MRSA
observed property: Organism, effect: MRSA

substance	result
PF-382: peptide having multiple activities (chain 1 KYKCSWCKRVYTLRKDHKTAR; chain 2 KYKCSWCKRVYTLRKDHKTAR; Peptide with targeting and/or antimicrobial activity)	MRSA (M)
PF-350: peptide having multiple activities (LAVILRAIVY; Peptide with targeting and/or antimicrobial activity)	MRSA (C)
PF-404: peptide having multiple activities (chain 1 VLYFQATVV; chain 2 VLYFQATVV; Peptide with targeting and/or antimicrobial activity)	MRSA (M)
PF-401: peptide having multiple activities (chain 1 YWLSRVTTGHSFAFEKPVPLSLTIK; chain 2 YWLSRVTTGHSFAFEKPVPLSLTIK; Peptide with targeting and/or antimicrobial activity)	MRSA (C)

====

Test system: microorganisms
Assay: Targeting peptide binding to target microorganisms (Tables 3, 10, 12)
Conditions: microorganism(s) the targeting peptide binds; binding in aqueous buffers varied with peptide solubility, preferably 1x PBS

substance	Target(s)
PF-703 (MTTVDNIVGLVIAVALMAFLFAALLFPEKF; Peptide with targeting and/or antimicrobial activity)	Mycobacteria spp
PF-658 (chain 1 PTTPPPTTPPEIPTGGTVIST; chain 2 PTTPPPTTPPEIPTGGTVIST; Peptide with targeting and/or antimicrobial activity)	Mycobacteria spp

====

System: microorganisms
Test: Morphology, biofilm and growth disrupting peptides (Table 5)
Assay type: cell-based
Design: key: A: Peptide aggregates; B: Less hyphal formation; Clumps; Diffuse clumps and small polyps; F: Diffuse growth; H: Thin; I: Growth inhibition; Microcolony formation; Rippled; Small polyps; Thick; W: Halo formation on top, microlonies on bottom
Settings: S. epidermidis
observed property: Organism, effect

substance	observed property	result
PF-624 (VFLLDSYCFVKINL; Peptide with targeting and/or antimicrobial activity)	Organism, effect	S. epidermidis (D)
PF-430: peptide having multiple activities (chain 1 AVVCGYLAYTATS; chain 2 AVVCGYLAYTATS; Peptide with targeting and/or antimicrobial activity)	Organism, effect	S. epidermidis (M)
PF-546: peptide having multiple activities (PIIAPTIKTQIQ; Peptide with targeting and/or antimicrobial activity)	Organism, effect	S. epidermidis (D)
PF-558: peptide having multiple activities (ADAPPPLIVRYS; Peptide with targeting and/or antimicrobial activity)	Organism, effect	S. epidermidis (M)
PF-536 (MEPIPHIMIIANQIGIIIEKA; Peptide with targeting and/or antimicrobial activity)	Organism, effect	S. epidermidis (C)
PF-562: peptide having multiple activities (TPEQWLERSTVVVTGLLNRK; Peptide with targeting and/or antimicrobial activity)	Organism, effect	S. epidermidis (A)
PF-577: peptide having multiple activities (PFETRESFRVPVIGILGGWDYFMHP; Peptide with targeting and/or antimicrobial activity)	Organism, effect	S. epidermidis (A)
PF-431: peptide having multiple activities (chain 1 VAYAAICWW; chain 2 VAYAAICWW; Peptide with targeting and/or antimicrobial activity)	Organism, effect	S. epidermidis (M)

Would you mind telling me what Organism, effect value was observed for PF-629: peptide having multiple activities (chain 1 GLAAIATVFALY; chain 2 GLAAIATVFALY; Peptide with targeting and/or antimicrobial activity) ?
S. epidermidis (C)

====

Tested on: microorganisms
Experiment: Targeting peptide binding to target microorganisms (Tables 3, 10, 12)
Details: microorganism(s) the targeting peptide binds; binding in aqueous buffers varied with peptide solubility, preferably 1x PBS
observed property: Target(s)

substance	tested on	result
PF-663 (chain 1 ATLIPRKA; chain 2 ATLIPRKA; Peptide with targeting and/or antimicrobial activity)	microorganisms	Mycobacteria spp
PF-557: peptide having multiple activities (AANKAREQAAAEAKRKAEEQAR; Peptide with targeting and/or antimicrobial activity)	microorganisms	S. pneumoniae
PF-687 (AKRVLSLAVAPHRRQPVQGT; Peptide with targeting and/or antimicrobial activity)	microorganisms	Mycobacteria spp
PF-551: peptide having multiple activities (QVKEKRREIELQFRDAEKKLEASVQAE; Peptide with targeting and/or antimicrobial activity)	microorganisms	S. pneumoniae
PF-668 (chain 1 TNAESMALAFRGRVHMSVNIAGLT; chain 2 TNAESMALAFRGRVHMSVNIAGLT; Peptide with targeting and/or antimicrobial activity)	microorganisms	Mycobacteria spp
PF-644 (chain 1 TSGLIIGENGLNGL; chain 2 TSGLIIGENGLNGL; Peptide with targeting and/or antimicrobial activity)	microorganisms	Mycobacteria spp

Would you mind telling me what Target(s) value was observed for PF-667 (chain 1 PAHQRLRIDQRLVADRDMVQDYES; chain 2 PAHQRLRIDQRLVADRDMVQDYES; Peptide with targeting and/or antimicrobial activity) ?
Mycobacteria spp

====

System: microorganisms
Experiment: Peptide activities: targeting/binding, antimicrobial, growth or phenotype altering (Tables 7, 8)
Format: cell-based
Conditions: peptides having multiple activities

substance	Activities
PF-156: peptide having multiple activities (LITAEQPATAPIAGK; Peptide with targeting and/or antimicrobial activity)	G B
PF-609: peptide having multiple activities (chain 1 TEIKLDNNEYLVLNLDDILGILK; chain 2 TEIKLDNNEYLVLNLDDILGILK; Peptide with targeting and/or antimicrobial activity)	G B
PDAPRTCYHKPILAALSRIVVTDR [PF-524]	G B M

====

Tested on: microorganisms
Assay: Morphology, biofilm and growth disrupting peptides (Table 5)
Assay type: cell-based
Design: key: A: Peptide aggregates; B: Less hyphal formation; Clumps; Diffuse clumps and small polyps; F: Diffuse growth; H: Thin; I: Growth inhibition; Microcolony formation; Rippled; Small polyps; Thick; W: Halo formation on top, microlonies on bottom
Settings: E. coli
observed property: Organism, effect: E. coli

Worked cases, Organism, effect: E. coli given:
substance	observed property	result
PF-386: peptide having multiple activities (chain 1 FTLTLITTIVAILNYKDKKK; chain 2 FTLTLITTIVAILNYKDKKK; Peptide with targeting and/or antimicrobial activity)	Organism, effect: E. coli	E. coli (C)
PF-178: peptide having multiple activities (EVYSSPTNNVAITVQNN; Peptide with targeting and/or antimicrobial activity)	Organism, effect: E. coli	E. coli (C)
PF-380: peptide having multiple activities (chain 1 KKIIPLITLFVVTLVG; chain 2 KKIIPLITLFVVTLVG; Peptide with targeting and/or antimicrobial activity)	Organism, effect: E. coli	E. coli (C)
PF-418: peptide having multiple activities (chain 1 FFLVHFYIRKRKGKVSIFLNYF; chain 2 FFLVHFYIRKRKGKVSIFLNYF; Peptide with targeting and/or antimicrobial activity)	Organism, effect: E. coli	E. coli (C)

Could you now consider this next substance?
Would you mind telling me what Organism, effect: E. coli value was observed for PF-396: peptide having multiple activities (chain 1 LIYTILASLGVLTVLQAILGREPKAVKA; chain 2 LIYTILASLGVLTVLQAILGREPKAVKA; Peptide with targeting and/or antimicrobial activity) ?
E. coli (C)

====

Tested on: microorganisms
Experiment: Morphology, biofilm and growth disrupting peptides (Table 5)
Assay type: cell-based
Design: key: A: Peptide aggregates; B: Less hyphal formation; Clumps; Diffuse clumps and small polyps; F: Diffuse growth; H: Thin; I: Growth inhibition; Microcolony formation; Rippled; Small polyps; Thick; W: Halo formation on top, microlonies on bottom
Conditions: S. pneumoniae
observed property: Organism, effect

Worked cases, Organism, effect given:
substance	Organism, effect
PF-466: peptide having multiple activities (VRKSDQ; Peptide with targeting and/or antimicrobial activity)	S. pneumoniae (H)
PF-578: peptide having multiple activities (QKANLRIGFTYTSDSNVCNLTFALLGSK; Peptide with targeting and/or antimicrobial activity)	S. pneumoniae (D)
PF-702 (LSGRLAGRR; Peptide with targeting and/or antimicrobial activity)	S. pneumoniae (H)
PF-465: peptide having multiple activities (KPVGKALEEIADGKIEPVVPKEYLG; Peptide with targeting and/or antimicrobial activity)	S. pneumoniae (H)

Could you now consider this next substance?
Any idea what Organism, effect came out for PF-737: peptide having multiple activities (KSSGSSASASSTAGGSSSK; Peptide with targeting and/or antimicrobial activity) on microorganisms?
S. pneumoniae (D)

Reference source for all entries: patent US20110039763A1
